test: NCI Yeast Anticancer Drug Screen. Data for the mec2-1 strain (AID 157); details: S. cerevisiae mec2-1 strain, at 11.0 µM, active compounds read high
This is part of a sample that, as a whole, favours compounds with a hit. Of some 79,000 tested, about 15% had one in any assay.
Would you mind telling me the reported growth inhibition of each entry?
Give bare numbers, in %.

INSERT INTO assay_data (compound, endpoint, units, reported) VALUES
  ('NNC(=S)Nc1cccc(Cl)c1', 'growth inhibition', '%', -40),
  ('CC(=O)[C@]1(O)Cc2c(O)c3c(c(O)c2[C@@H](OC2CC(N)C(O)C(C)O2)C1)C(=O)c1c(OCc2ccccc2)cccc1C3=O (stereo partly drawn)', 'growth inhibition', '%', -1),
  ('Clc1cc(-c2ccccc2)nc2ccccc12', 'growth inhibition', '%', -14),
  ('CC(=O)c1cc2c(Cl)cc(Cl)cc2oc1=O', 'growth inhibition', '%', -14),
  ('Cc1cc(O)c2c(c1O)C(=O)C13C(=C2O)C(=O)C2C(O)C1C1C(O)C3C(=O)C3=C(O)c4c(O)cc(C)c(O)c4C(=O)C321 (stereo not drawn)', 'growth inhibition', '%', 76);

Working through the 4 compounds below one at a time, give growth inhibition for each.
1. CCOC(=O)c1csc(Br)n1
2. CCOP1(=O)C=C(Sc2ccc([N+](=O)[O-])cc2[N+](=O)[O-])C(C)(C)O1 (stereo not drawn)
3. CCCCCCCCCCCCCCCCCCNC(=S)/N=C\C1=C(O)c2ccccc2C1=O
4. O=C(N/N=C\c1c(Cl)cccc1Cl)N/N=C/c1c(Cl)cccc1Cl

Response given:
1. -3
2. 18
3. -5
4. 12

Okay, here is my list. What is growth inhibition for each of these?
1. COc1cc(N(C)C)ccc1/C=C\c1ccnc2ccccc12
2. CCCCCCCCCCCc1nc(N)n[nH]1
3. CC[C@@]1(OC(=O)CN(C)C)C(=O)OCc2c1cc1n(c2=O)Cc2cc3c(N)cccc3nc2-1
4. CC1=CCCC2C1(C)CCC(C)C2(C)Cc1cc(O)ccc1O (stereo not drawn)
5. O=C1C(Cl)=C(Cl)C(Cl)(Cl)C(Cl)C1(Cl)Cl (stereo not drawn)
6. C=Cc1cnc([N+](=O)[O-])n1C
7. N#CC(=C1C=CC(=NO)C=C1)c1ccccc1

Response given:
[-8, 0, 46, 45, 49, 26, 99]
